Sourced from ChEMBL document CHEMBL6078684

Consider the following compounds and their measured DC50 readings.
targetOfAssay: Protein cereblon/Androgen receptor (Homo sapiens, UniProt P10275+Q96SW2)
Sequence (P10275 whole entry): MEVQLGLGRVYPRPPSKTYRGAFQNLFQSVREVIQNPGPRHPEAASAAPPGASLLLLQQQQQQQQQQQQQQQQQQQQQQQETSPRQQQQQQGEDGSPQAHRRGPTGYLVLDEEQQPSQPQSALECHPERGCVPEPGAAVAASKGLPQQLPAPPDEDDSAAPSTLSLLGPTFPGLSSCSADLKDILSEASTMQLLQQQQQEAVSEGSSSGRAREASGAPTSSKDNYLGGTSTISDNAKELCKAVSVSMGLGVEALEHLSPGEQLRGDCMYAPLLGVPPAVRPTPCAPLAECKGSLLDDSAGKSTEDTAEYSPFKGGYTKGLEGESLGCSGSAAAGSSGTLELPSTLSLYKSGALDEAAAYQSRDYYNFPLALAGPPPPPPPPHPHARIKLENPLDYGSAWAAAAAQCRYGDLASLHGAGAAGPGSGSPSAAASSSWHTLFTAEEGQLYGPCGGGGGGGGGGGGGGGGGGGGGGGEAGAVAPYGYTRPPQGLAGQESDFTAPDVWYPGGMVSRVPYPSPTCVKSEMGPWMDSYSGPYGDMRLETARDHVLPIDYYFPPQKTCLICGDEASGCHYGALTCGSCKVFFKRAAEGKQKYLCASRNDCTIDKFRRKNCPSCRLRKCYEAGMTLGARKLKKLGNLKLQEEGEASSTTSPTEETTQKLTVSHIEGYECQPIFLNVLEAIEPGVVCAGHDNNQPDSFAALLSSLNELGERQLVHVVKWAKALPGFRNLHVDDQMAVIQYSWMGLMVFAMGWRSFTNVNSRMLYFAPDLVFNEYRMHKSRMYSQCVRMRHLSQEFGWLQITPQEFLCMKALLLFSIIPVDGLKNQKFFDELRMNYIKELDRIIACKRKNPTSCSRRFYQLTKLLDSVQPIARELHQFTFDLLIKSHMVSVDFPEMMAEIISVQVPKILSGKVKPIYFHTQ
Sequence (Q96SW2 whole entry): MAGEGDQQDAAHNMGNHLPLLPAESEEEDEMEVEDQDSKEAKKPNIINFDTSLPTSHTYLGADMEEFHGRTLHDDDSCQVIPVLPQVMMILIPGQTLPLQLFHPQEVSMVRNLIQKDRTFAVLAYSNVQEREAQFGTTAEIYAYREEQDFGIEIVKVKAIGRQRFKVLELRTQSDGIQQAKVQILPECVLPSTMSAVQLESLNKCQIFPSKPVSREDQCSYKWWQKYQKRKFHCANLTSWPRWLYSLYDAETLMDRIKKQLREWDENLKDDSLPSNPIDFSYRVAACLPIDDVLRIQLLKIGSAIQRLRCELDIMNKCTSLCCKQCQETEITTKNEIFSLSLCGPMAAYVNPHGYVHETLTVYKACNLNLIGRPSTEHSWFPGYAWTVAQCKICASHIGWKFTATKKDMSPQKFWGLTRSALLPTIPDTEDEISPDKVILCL
assayText: PROTAC activity at CRBN/AR in human dermal papilla cell assessed as induction of AR degradation measured after 24 to 72 hrs by Western blot analysis
Format: cell-based

// below: answered compounds
1) N#Cc1ccc(O[C@H]2CC[C@H](NC(=O)c3ccc(N4CCC(N5CCN(c6ccc(C(=O)NC7CCC(=O)NC7=O)cc6)CC5)CC4)cc3)CC2)cc1Cl (some centres not stated) = 104 nM
2) N#Cc1ccc(O[C@H]2CC[C@H](NC(=O)c3ccc(N4CCC(CCN5CCN(c6ccc(C(=O)NC7CCC(=O)NC7=O)cc6)CC5)CC4)cc3)CC2)cc1Cl (some centres not stated) = > 1000 nM
3) N#Cc1ccc(O[C@H]2CC[C@H](NC(=O)c3ccc(N4CCC(CN5CCN(c6ccc7c(c6)C(=O)N(C6CCC(=O)NC6=O)C7=O)CC5)CC4)cc3)CC2)cc1Cl (some centres not stated) = 207 nM
4) N#Cc1ccc(O[C@H]2CC[C@H](NC(=O)c3ccc(C4CCN(CC5CCCN(c6ccc7c(c6)C(=O)N(C6CCC(=O)NC6=O)C7=O)C5)CC4)cc3)CC2)cc1Cl (some centres not stated) = > 1000 nM
5) N#Cc1ccc(O[C@H]2CC[C@H](NC(=O)c3ccc(N4CCN(CC5CCN(c6ccc(C(=O)NC7CCC(=O)NC7=O)cc6)C5)CC4)cc3)CC2)cc1Cl (some centres not stated) = > 1000 nM
6) N#Cc1ccc(O[C@H]2CC[C@H](NC(=O)c3ccc(N4CCC(CN5CCN(c6ccc(C(=O)NC7CCC(=O)NC7=O)cc6)CC5)CC4)cc3)CC2)cc1Cl (some centres not stated) = > 1000 nM

For the next question, use this compound.
// DC50 (Protein cereblon/Androgen receptor (Homo sapiens, UniProt P10275+Q96SW2)) for N#Cc1ccc(O[C@H]2CC[C@H](NC(=O)c3ccc(C4CCN(CC5CCCN(c6ccc(C(=O)NC7CCC(=O)NC7=O)cc6)C5)CC4)cc3)CC2)cc1Cl (some centres not stated) = 200 nM
